# tested_on: And-1 (Homo sapiens, UniProt O75717)
# test: inhibition of And-1 in IGROV1 CR cells
# Assay type: cell-based
# Set-up: endogenous in cells; host or cells: IGROV1 CR
# protocol_conditions: inhibition of And-1, IGROV1 CR cells
experimental_endpoint: IC50 (µM)
A number alone suffices; assume µM.

Problem: Consider the compound COc1cccc(/C=C/c2ccc3c(c2)COB3O)c1 and give its recorded IC50.
Solution: 34.1

Problem: Consider the compound OB1OCc2cc(/C=C/c3cc(C(F)(F)F)cc(C(F)(F)F)c3)ccc21 and give its recorded IC50.
Solution: 37.6

Problem: Consider the compound OB1OCc2cc(/C=C/c3ccccc3)ccc21 and give its recorded IC50.
Solution: 41

Problem: Consider the compound OB1OCc2cc(/C=C/c3cccc(Cl)c3)ccc21 and give its recorded IC50.
Solution: 19.2

Problem: Consider the compound OB1OCc2cc(/C=C/c3cc(Cl)cc(Cl)c3)ccc21 and give its recorded IC50.
Solution: 25.7

Problem: Consider the compound Cc1cccc(/C=C/c2ccc3c(c2)COB3O)c1 and give its recorded IC50.
Solution: 32.9

Problem: Consider the compound OB1OCc2cc(/C=C/c3cccc(C(F)(F)F)c3)ccc21 and give its recorded IC50.
Solution: 20.4

###

# tested_on: And-1 protein fused to a luciferase reporter gene (Homo sapiens)
# test: quantitative HTS (qHTS) of LOPAC library in HEK293T-And-1-Luc cells (luciferase read-out of And-1 level)
# Type: cell-based
# protocol_conditions: HTS assay, determination 1; read-out: IC50 (μM) 1
Where a name gives a salt, the structure may show the parent alone.
experimental_endpoint: IC50 (µM)
A number alone suffices; assume µM.

Problem: Consider the compound c1ccc2c(c1)[I+]c1ccccc1-2 [Diphenyleneiodonium chloride] and give its recorded IC50.
Solution: 0.84

Problem: Consider the compound COCCOC(=O)C1=C(C)NC(C)=C(C(=O)OC/C=C/c2ccccc2)C1c1cccc([N+](=O)[O-])c1 (stereo not shown) and give its recorded IC50.
Solution: 22.9

Problem: Consider the compound COc1cc2c(cc1O)CC[C@@H]1[C@@H]2CC[C@]2(C)[C@@H](O)CC[C@@H]12 and give its recorded IC50.
Solution: 1.67

Problem: Consider the compound Nc1ccn([C@@H]2O[C@H](CO)[C@@H](O)C2(F)F)c(=O)n1 [Gemcitabine hydrochloride] and give its recorded IC50.
Solution: 0.02

###

# tested_on: And-1 protein fused to a luciferase reporter gene (Homo sapiens, UniProt O75717)
# Sequence (O75717 1-1129): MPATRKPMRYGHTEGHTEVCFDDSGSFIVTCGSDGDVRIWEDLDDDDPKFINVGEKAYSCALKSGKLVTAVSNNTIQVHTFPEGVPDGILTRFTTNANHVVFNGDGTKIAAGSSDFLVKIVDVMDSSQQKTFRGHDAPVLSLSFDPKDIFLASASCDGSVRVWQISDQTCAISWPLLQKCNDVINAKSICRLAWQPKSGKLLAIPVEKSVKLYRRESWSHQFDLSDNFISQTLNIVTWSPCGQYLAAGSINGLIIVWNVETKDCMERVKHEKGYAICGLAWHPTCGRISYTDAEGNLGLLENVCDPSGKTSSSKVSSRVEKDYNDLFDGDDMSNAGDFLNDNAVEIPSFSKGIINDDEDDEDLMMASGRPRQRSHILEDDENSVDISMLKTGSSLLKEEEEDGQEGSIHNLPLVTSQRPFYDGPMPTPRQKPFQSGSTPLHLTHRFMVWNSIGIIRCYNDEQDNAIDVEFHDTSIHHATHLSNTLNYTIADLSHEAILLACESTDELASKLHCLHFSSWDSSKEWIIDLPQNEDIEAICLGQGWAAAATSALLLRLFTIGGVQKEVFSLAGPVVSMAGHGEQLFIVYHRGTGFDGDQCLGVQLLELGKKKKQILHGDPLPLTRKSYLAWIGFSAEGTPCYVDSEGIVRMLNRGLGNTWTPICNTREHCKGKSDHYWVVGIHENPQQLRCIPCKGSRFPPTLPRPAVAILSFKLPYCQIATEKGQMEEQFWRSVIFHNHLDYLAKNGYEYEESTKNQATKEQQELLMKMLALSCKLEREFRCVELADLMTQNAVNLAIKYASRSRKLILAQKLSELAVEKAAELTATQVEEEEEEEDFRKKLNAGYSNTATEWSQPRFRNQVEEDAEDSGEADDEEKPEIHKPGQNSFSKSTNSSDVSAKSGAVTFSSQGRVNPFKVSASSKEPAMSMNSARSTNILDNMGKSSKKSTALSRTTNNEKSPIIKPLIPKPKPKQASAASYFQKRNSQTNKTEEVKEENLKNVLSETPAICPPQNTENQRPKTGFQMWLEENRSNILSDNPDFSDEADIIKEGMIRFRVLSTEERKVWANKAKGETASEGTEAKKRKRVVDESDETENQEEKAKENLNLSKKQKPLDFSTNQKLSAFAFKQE
# test: quantitative HTS (qHTS) of LOPAC library in HEK293T-And-1-Luc cells (luciferase read-out of And-1 level)
# Type: cell-based
# protocol_conditions: HTS assay, average of 1 and 2; read-out: IC50 (μM) average
# Source text: To identify And-1 specific pharmacologic inhibitors, a high-throughput screening (HTS) assay was established to identify small molecules that can inhibit And-1 by inducing its degradation. For this assay, two stable cell lines, a HEK293T-And-1-Luc cell expressing And-1 protein fused to a luciferase reporter gene, and a HEK293T-Luc cell expressing luciferase only were generated (FIG. 13A). […]
Provide the reported log10(IC50) of each item.
# log10 transformed; quantity=IC50; unit=µM

Problem: Consider the compound O=C1C(SCCO)=C(SCCO)C(=O)c2ccccc21 [NSC 95397] and give its recorded log10(IC50).
Solution: 0.97

Problem: Consider the compound CNc1ccc2oc(C[C@H]3O[C@@]4(CC[C@H]3C)O[C@H]([C@H](C)C(=O)c3ccc[nH]3)[C@H](C)C[C@H]4C)nc2c1C(=O)O [Calcimycin] and give its recorded log10(IC50).
Solution: 0.92

Problem: Consider the compound CC[n+]1c(/C=C/C=C2/N(C)c3ccccc3C2(C)C)sc2ccccc21 [AC-93253 iodide] and give its recorded log10(IC50).
Solution: -0.12

Problem: Consider the compound COCCOC(=O)C1=C(C)NC(C)=C(C(=O)OC/C=C/c2ccccc2)C1c1cccc([N+](=O)[O-])c1 (stereo not shown) [Cilnidipine] and give its recorded log10(IC50).
Solution: 1.32

Problem: Consider the compound C/C=C(/C)C(=O)O[C@H]1C(C)=C2[C@H]([C@@H]1OC(=O)CCCCCCC)[C@@](C)(OC(C)=O)C[C@H](OC(=O)CCC)[C@@]1(O)[C@H]2OC(=O)[C@@]1(C)O [Thapsigargin] and give its recorded log10(IC50).
Solution: 0.84

Problem: Consider the compound c1ccc2c(c1)[I+]c1ccccc1-2 [Diphenyleneiodonium chloride] and give its recorded log10(IC50).
Solution: -0.37

Problem: Consider the compound C=CCc1cccc(/C=N/NC(=O)CN2CCN(Cc3ccccc3)CC2)c1O [PAC-1] and give its recorded log10(IC50).
Solution: 1.33

###

# tested_on: And-1 protein fused to a luciferase reporter gene (Homo sapiens, UniProt O75717)
# Sequence (O75717 1-1129): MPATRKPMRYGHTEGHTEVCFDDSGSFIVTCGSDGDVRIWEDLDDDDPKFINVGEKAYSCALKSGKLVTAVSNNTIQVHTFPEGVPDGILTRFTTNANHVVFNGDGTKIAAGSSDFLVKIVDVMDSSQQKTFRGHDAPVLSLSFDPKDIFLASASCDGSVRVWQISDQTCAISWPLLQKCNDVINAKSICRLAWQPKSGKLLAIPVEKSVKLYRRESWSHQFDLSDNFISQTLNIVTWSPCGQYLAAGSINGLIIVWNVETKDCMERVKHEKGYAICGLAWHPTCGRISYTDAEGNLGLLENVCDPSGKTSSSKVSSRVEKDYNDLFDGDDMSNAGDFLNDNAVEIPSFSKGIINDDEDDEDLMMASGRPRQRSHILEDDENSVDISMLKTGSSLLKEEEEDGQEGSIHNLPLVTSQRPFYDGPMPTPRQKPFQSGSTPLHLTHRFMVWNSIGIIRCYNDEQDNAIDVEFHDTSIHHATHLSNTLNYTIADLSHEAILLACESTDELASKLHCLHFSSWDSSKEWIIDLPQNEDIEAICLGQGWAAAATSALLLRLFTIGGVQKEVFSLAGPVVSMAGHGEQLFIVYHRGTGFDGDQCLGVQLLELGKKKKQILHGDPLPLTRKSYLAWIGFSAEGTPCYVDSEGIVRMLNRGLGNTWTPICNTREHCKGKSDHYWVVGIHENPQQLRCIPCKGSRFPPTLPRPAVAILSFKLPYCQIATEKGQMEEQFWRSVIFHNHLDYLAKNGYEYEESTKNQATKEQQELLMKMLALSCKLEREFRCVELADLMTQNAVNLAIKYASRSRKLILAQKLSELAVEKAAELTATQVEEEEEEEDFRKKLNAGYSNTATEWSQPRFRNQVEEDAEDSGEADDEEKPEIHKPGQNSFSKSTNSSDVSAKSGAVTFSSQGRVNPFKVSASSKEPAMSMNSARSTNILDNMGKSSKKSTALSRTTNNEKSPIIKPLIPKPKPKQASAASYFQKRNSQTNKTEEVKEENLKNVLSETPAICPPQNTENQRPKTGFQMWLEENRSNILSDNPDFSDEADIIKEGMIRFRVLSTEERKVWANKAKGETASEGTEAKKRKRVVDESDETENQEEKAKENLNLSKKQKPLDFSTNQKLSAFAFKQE
# test: quantitative HTS (qHTS) of LOPAC library in HEK293T-And-1-Luc cells (luciferase read-out of And-1 level)
# Format: cell-based
# protocol_conditions: HTS assay, determination 2; read-out: IC50 (μM) 2
Entries whose IC50 is below 10 µM take y; entries at or above 10 µM take n.

Problem: Input C/C=C(/C)C(=O)O[C@H]1C(C)=C2[C@H]([C@@H]1OC(=O)CCCCCCC)[C@@](C)(OC(C)=O)C[C@H](OC(=O)CCC)[C@@]1(O)[C@H]2OC(=O)[C@@]1(C)O ; condition: IC50 strictly below 10 µM. Does it hold?
Solution: y

Problem: Input c1ccc2c(c1)[I+]c1ccccc1-2 [Diphenyleneiodonium chloride] ; condition: IC50 strictly below 10 µM. Does it hold?
Solution: y

Problem: Input O=C1C(SCCO)=C(SCCO)C(=O)c2ccccc21 ; condition: IC50 strictly below 10 µM. Does it hold?
Solution: y

Problem: Input C=CCc1cccc(/C=N/NC(=O)CN2CCN(Cc3ccccc3)CC2)c1O ; condition: IC50 strictly below 10 µM. Does it hold?
Solution: n

Problem: Input COCCOC(=O)C1=C(C)NC(C)=C(C(=O)OC/C=C/c2ccccc2)C1c1cccc([N+](=O)[O-])c1 (stereo not shown) ; condition: IC50 strictly below 10 µM. Does it hold?
Solution: n

Problem: Input CC[n+]1c(/C=C/C=C2/N(C)c3ccccc3C2(C)C)sc2ccccc21 [AC-93253 iodide] ; condition: IC50 strictly below 10 µM. Does it hold?
Solution: y

Problem: Input CNc1ccc2oc(C[C@H]3O[C@@]4(CC[C@H]3C)O[C@H]([C@H](C)C(=O)c3ccc[nH]3)[C@H](C)C[C@H]4C)nc2c1C(=O)O ; condition: IC50 strictly below 10 µM. Does it hold?
Solution: n
